assay: log P by HPLC on reversed-phase column (C18), EEC directive 79/831 Annex V.A8; format: physicochemical; conditions: Table A; HPLC reversed-phase C18, 43° C.; data refer to the E isomer
EXPERIMENTAL READOUT: log p

- COMPOUND: "CON=Cc1cc(C)c(NC(=O)c2cc(C(F)(F)F)nn2-c2ncccc2Cl)c(C(=O)NNC(=O)OC)c1"
  NUMERIC RESULT: 2.65
- COMPOUND: "CCOC(=O)NN(C)C(=O)c1cc(C=NOC)cc(C)c1NC(=O)c1cc(Br)nn1-c1ncccc1Cl"
  NUMERIC RESULT: 2.97
- COMPOUND: "CCOC(=O)NNC(=O)c1cc(C=NOC)cc(C)c1NC(=O)c1cc(C(F)(F)F)nn1-c1ncccc1Cl"
  NUMERIC RESULT: 2.92
- COMPOUND: "CON=Cc1cc(C)c(NC(=O)c2cc(OCC(F)(F)F)nn2-c2ncccc2Cl)c(C(=O)NNC(=O)OC)c1 (mixture of isomers)"
  NUMERIC RESULT: 2.70

* * *

test: log P by HPLC on reversed-phase column (C18), EEC directive 79/831 Annex V.A8; type: physicochemical; settings: Table B; HPLC reversed-phase C18, 43° C.; data refer to the E isomer
Decide by log p: equal to or exceeding 3 means t, less means f.

- COMPOUND: "CON=Cc1cc(C)c(NC(=O)c2cc(OC)nn2-c2ncccc2Cl)c(C(=O)NC2COC2)c1 (mixture of isomers)"
  CLASSIFICATION: "f"
- COMPOUND: "CON=Cc1cc(C)c(NC(=O)c2cc(OCC(F)F)nn2-c2ncccc2Cl)c(C(=O)NC2COC2)c1 (mixture of isomers)"
  CLASSIFICATION: "f"
- COMPOUND: "CON=Cc1cc(C)c(NC(=O)c2cc(Br)nn2-c2ncccc2Cl)c(C(=O)NC2(C)CSC2)c1 (mixture of isomers)"
  CLASSIFICATION: "t"
- COMPOUND: "CON=Cc1cc(C)c(NC(=O)c2cc(OC(C)C)nn2-c2ncccc2Cl)c(C(=O)NC2COC2)c1 (mixture of isomers)"
  CLASSIFICATION: "f"
- COMPOUND: "CON=Cc1cc(C)c(NC(=O)c2cc(C(F)(F)F)nn2-c2ncccc2Cl)c(C(=O)NC2C[S+]([O-])C2)c1 (mixture of isomers)"
  CLASSIFICATION: "f"
- COMPOUND: "CON=Cc1cc(C)c(NC(=O)c2cc(C(F)F)nn2-c2ncccc2Cl)c(C(=O)NC2COC2)c1 (mixture of isomers)"
  CLASSIFICATION: "f"
- COMPOUND: "CON=Cc1cc(C)c(NC(=O)c2cc(C(F)(F)F)nn2-c2ncccc2Cl)c(C(=O)NC2CS(=O)(=O)C2)c1 (mixture of isomers)"
  CLASSIFICATION: "f"
- COMPOUND: "CON=Cc1cc(C)c(NC(=O)c2cc(Br)nn2-c2ncccc2Cl)c(C(=O)NC2COC2)c1 (mixture of isomers)"
  CLASSIFICATION: "f"
- COMPOUND: "CON=Cc1cc(C)c(NC(=O)c2cc(C(F)(F)F)nn2-c2ncccc2Cl)c(C(=O)NC2CSC2)c1 (mixture of isomers)"
  CLASSIFICATION: "t"
- COMPOUND: "CON=Cc1cc(C)c(NC(=O)c2cc(CF)nn2-c2ncccc2Cl)c(C(=O)NC2COC2)c1 (mixture of isomers)"
  CLASSIFICATION: "f"
- COMPOUND: "CON=Cc1cc(C)c(NC(=O)c2cc(C(F)(F)F)nn2-c2ncccc2Cl)c(C(=O)NC2COC2)c1 (mixture of isomers)"
  CLASSIFICATION: "f"

* * *

Assay: log P by HPLC on reversed-phase column (C18), EEC directive 79/831 Annex V.A8
Type: physicochemical
Details: Table A; HPLC reversed-phase C18, 43° C.; data refer to the E isomer
Experimental: The log P values reported in the tables and Preparation Examples above were determined in accordance with EEC directive 79/831 Annex V.A8 by HPLC (High Performance Liquid Chromatography) using a reversed-phase column (C18). Temperature 43° C. The calibration is effected with unbranched alkan-2-ones (having 3 to 16 carbon atoms), for which the log P values are known.
Each item that follows carries a reported log p.
EXPERIMENTAL READOUT: log p

- COMPOUND: "CON=Cc1cc(C)c(NC(=O)c2cc(OC)nn2-c2ncccc2Cl)c(C(=O)NN(C)C(=O)OC)c1 (mixture of isomers)"
  EXPERIMENTAL READOUT: "log p"
  NUMERIC RESULT: 2.19
- COMPOUND: "COCCOC(=O)NNC(=O)c1cc(C=NOC)cc(C)c1NC(=O)c1cc(C(F)(F)F)nn1-c1ncccc1Cl"
  EXPERIMENTAL READOUT: "log p"
  NUMERIC RESULT: 2.74
- COMPOUND: "CON=Cc1cc(C)c(NC(=O)c2cc(Br)nn2-c2ncccc2Cl)c(C(=O)N(C)NC(=O)Oc2ccccc2)c1"
  EXPERIMENTAL READOUT: "log p"
  NUMERIC RESULT: 3.46
- COMPOUND: "CON=Cc1cc(C)c(NC(=O)c2cc(Br)nn2-c2ncccc2Cl)c(C(=O)N(C)NC(C)=O)c1"
  EXPERIMENTAL READOUT: "log p"
  NUMERIC RESULT: 2.31
- COMPOUND: "C=CCOC(=O)NN(C)C(=O)c1cc(C=NOC)cc(C)c1NC(=O)c1cc(C(F)(F)F)nn1-c1ncccc1Cl"
  EXPERIMENTAL READOUT: "log p"
  NUMERIC RESULT: 3.41
- COMPOUND: "CON=Cc1cc(C)c(NC(=O)c2cc(C(F)(F)F)nn2-c2ncccc2Cl)c(C(=O)N(C)NC(C)=O)c1"
  EXPERIMENTAL READOUT: "log p"
  NUMERIC RESULT: 2.75
- COMPOUND: "CON=Cc1cc(C)c(NC(=O)c2cc(C(F)(F)F)nn2-c2ncccc2Cl)c(C(=O)N(C)NC(=O)OC(C)C)c1"
  EXPERIMENTAL READOUT: "log p"
  NUMERIC RESULT: 3.57

* * *

assay: log P by HPLC on reversed-phase column (C18), EEC directive 79/831 Annex V.A8; assay type: physicochemical; conditions: Table C; HPLC reversed-phase C18, 43° C.; data refer to the E isomer
Each item that follows carries a reported log p.

- COMPOUND: "CON=Cc1cc(C)c(NC(=O)c2cc(CF)nn2-c2ncccc2Cl)c(C(=O)NC(C)(C)C)c1"
  log p: 3.00
- COMPOUND: "CON=Cc1cc(C)c(NC(=O)c2cc(OC)nn2-c2ncccc2Cl)c(C(=O)NC(C)C)c1 [C-24]"
  log p: 2.65
- COMPOUND: "CON=Cc1cc(C)c(NC(=O)c2cc(OC(C)C)nn2-c2ncccc2Cl)c(C(=O)NC(C)C)c1"
  log p: 3.29
- COMPOUND: "COCCNC(=O)c1cc(C=NOC)cc(C)c1NC(=O)c1cc(CF)nn1-c1ncccc1Cl"
  log p: 2.27
- COMPOUND: "CON=Cc1cc(C)c(NC(=O)c2cc(OCC(F)F)nn2-c2ncccc2Cl)c(C(=O)N(C)C)c1"
  log p: 2.61
- COMPOUND: "CON=Cc1cc(C)c(NC(=O)c2cc(C(F)F)nn2-c2ncccc2Cl)c(C(=O)N(C)C)c1"
  log p: 2.47
- COMPOUND: "C#CCNC(=O)c1cc(C=NOC)cc(C)c1NC(=O)c1cc(C(F)F)nn1-c1ncccc1Cl"
  log p: 2.69
- COMPOUND: "COCCNC(=O)c1cc(C=NOC)cc(C)c1NC(=O)c1cc(C(F)F)nn1-c1ncccc1Cl"
  log p: 2.53
- COMPOUND: "C#CCNC(=O)c1cc(C=NOC)cc(C)c1NC(=O)c1cc(OC)nn1-c1ncccc1Cl"
  log p: 2.40
- COMPOUND: "CNC(=O)c1cc(C=NOC)cc(C)c1NC(=O)c1cc(CF)nn1-c1ncccc1Cl"
  log p: 2.14
- COMPOUND: "CON=Cc1cc(C)c(NC(=O)c2cc(OC)nn2-c2ncccc2Cl)c(C(=O)N(C)C)c1"
  log p: 2.16
- COMPOUND: "CON=Cc1cc(C)c(NC(=O)c2cc(C(F)F)nn2-c2ncccc2Cl)c(C(=O)NC2CC2)c1"
  log p: 2.72
- COMPOUND: "CNC(=O)c1cc(C=NOC)cc(C)c1NC(=O)c1cc(C(F)F)nn1-c1ncccc1Cl"
  log p: 2.48
- COMPOUND: "CCOc1cc(C(=O)Nc2c(C)cc(C=NOC)cc2C(=O)NC(C)C2CC2)n(-c2ncccc2Cl)n1 (stereo not drawn)"
  log p: 3.38
- COMPOUND: "C#CCNC(=O)c1cc(C=NOC)cc(C)c1NC(=O)c1cc(OCC(F)F)nn1-c1ncccc1Cl"
  log p: 2.78
- COMPOUND: "COCC(C)NC(=O)c1cc(C=NOC)cc(C)c1NC(=O)c1cc(C(F)F)nn1-c1ncccc1Cl (stereo not drawn)"
  log p: 2.84
- COMPOUND: "CCOc1cc(C(=O)Nc2c(C)cc(C=NOC)cc2C(=O)NC)n(-c2ncccc2Cl)n1"
  log p: 2.48
- COMPOUND: "CON=Cc1cc(C)c(NC(=O)c2cc(OCC(F)F)nn2-c2ncccc2Cl)c(C(=O)NC(C)(C)C)c1"
  log p: 3.43
- COMPOUND: "CON=Cc1cc(C)c(NC(=O)c2cc(CF)nn2-c2ncccc2Cl)c(C(=O)N(C)C)c1"
  log p: 2.19
- COMPOUND: "CON=Cc1cc(C)c(NC(=O)c2cc(OCC(F)F)nn2-c2ncccc2Cl)c(C(=O)NC(C)C2CC2)c1 (stereo not drawn)"
  log p: 3.39
- COMPOUND: "CCNC(=O)c1cc(C=NOC)cc(C)c1NC(=O)c1cc(C(F)F)nn1-c1ncccc1Cl"
  log p: 2.71
- COMPOUND: "CON=Cc1cc(C)c(NC(=O)c2cc(OC)nn2-c2ncccc2Cl)c(C(=O)NC(C)(C)C)c1 [C-26]"
  log p: 3.06
- COMPOUND: "COCC(C)NC(=O)c1cc(C=NOC)cc(C)c1NC(=O)c1cc(OC)nn1-c1ncccc1Cl (stereo not drawn)"
  log p: 2.51
- COMPOUND: "CON=Cc1cc(C)c(NC(=O)c2cc(C(F)F)nn2-c2ncccc2Cl)c(C(=O)NC(C)(C)C)c1"
  log p: 3.34
- COMPOUND: "CON=Cc1cc(C)c(NC(=O)c2cc(OC(C)C)nn2-c2ncccc2Cl)c(C(=O)NC(C)(C)C)c1"
  log p: 3.74
- COMPOUND: "COCC(C)NC(=O)c1cc(C=NOC)cc(C)c1NC(=O)c1cc(CF)nn1-c1ncccc1Cl (stereo not drawn)"
  log p: 2.47
- COMPOUND: "CNC(=O)c1cc(C=NOC)cc(C)c1NC(=O)c1cc(OC)nn1-c1ncccc1Cl [C-22]"
  log p: 2.15
- COMPOUND: "CCNC(=O)c1cc(C=NOC)cc(C)c1NC(=O)c1cc(OC)nn1-c1ncccc1Cl"
  log p: 2.41
- COMPOUND: "CCOc1cc(C(=O)Nc2c(C)cc(C=NOC)cc2C(=O)NC(C)(C)C)n(-c2ncccc2Cl)n1"
  log p: 3.42
- COMPOUND: "CCNC(=O)c1cc(C=NOC)cc(C)c1NC(=O)c1cc(OCC(F)F)nn1-c1ncccc1Cl"
  log p: 2.81
- COMPOUND: "CON=Cc1cc(C)c(NC(=O)c2cc(CF)nn2-c2ncccc2Cl)c(C(=O)NC(C)C)c1"
  log p: 2.65
- COMPOUND: "CON=Cc1cc(C)c(NC(=O)c2cc(OC)nn2-c2ncccc2Cl)c(C(=O)NC(C)C)c1 (mixture of isomers) [C-32]"
  log p: 3.22
- COMPOUND: "CON=Cc1cc(C)c(NC(=O)c2cc(C(F)(F)F)nn2-c2ncccc2Cl)c(C(=O)NC(C)CSC)c1 (stereo not drawn)"
  log p: 3.72
